B1: DYRK1B (parent)
chain: RFQDLVLRMLEYEPAARISPLGAL

Variants of: B1
measurement protocol: protein stability index of a GFP-peptide fusion (GPS, HEK-293T) (PSI 1-6); higher = more stable;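 also: lentivirally expressed fusions sorted by FACS into six bins by GFP to DsRed ratio, PSI derived from sequencing read proportions per bin multiplied by bin number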
assay setup: c terminus: a fixed tail appended
observed property: protein stability index
Form rule: numeric answer, no unit written next to it.

mutations	recorded number
L7R	1.58
A23M	2.25
L24C	2.82
L5M	3.17
V6A	2.26

Prompt: // query protein stability index value for entry F2Q
Completion: 3.35

Prompt: // query protein stability index value for entry F2H
Completion: 2.53
